Where these numbers come from: the supplement of paper PMC11865577

test system: TO-N3-2 (biotin conjugate); assay: pull-down binding Z-score (relative to library population); higher = stronger binding; conditions: RNA library: Library-2
parameter.measured: pull-down binding Z-score

residues | test.system | observed
ACAUAGCAGUGGUGUUACCCGUGAACUCAUGCGUGAGCUUAACGGAGGGGCAUACACUCGCUAUGU | TO-N3-2 (biotin conjugate) | 0.0437
GUGAAGAAUCAU | TO-N3-2 (biotin conjugate) | -0.489
GAGACUGCCCAAAGACUCUUCAGUAUC [hsa-mir-2681] | TO-N3-2 (biotin conjugate) | 0.223
GGGGCCCUACUUUAAGGGCCCU [hsa-mir-8087] | TO-N3-2 (biotin conjugate) | -0.706
CUGUGGCCGGUCCCAG [hsa-mir-4656] | TO-N3-2 (biotin conjugate) | 0.902
UCUGUUGUCUGAAAGAAAACA [hsa-mir-518b_518c] | TO-N3-2 (biotin conjugate) | 0.0545
